PROCEDURE TEXT: Plasma concentration in rats after intravenous administration (HPLC)
SETTINGS: rat, plasma, iv, 1 mg/kg
Counter-ions that a name gives are not always drawn.
RESULT TYPE: concentration at 2 min
Could you write the number and then its unit?

I have this compound here, N=C(N)c1cccc(CC(NS(=O)(=O)c2ccc3ccccc3c2)C(=O)N2CCC(C(=O)O)CC2)c1 (racemic) , and I need its recorded concentration at 2 min. 2350 ng/mL

I have this compound here, NCc1cccc(CC(NS(=O)(=O)c2ccc3ccccc3c2)C(=O)N2CCC(C(=O)O)CC2)c1 (racemic) , and I need its recorded concentration at 2 min. 1840 ng/mL

I have this compound here, N=C(N)c1cccc(C[C@H](NS(=O)(=O)c2ccc3ccccc3c2)C(=O)N2CCC[C@@H]2C(=O)O)c1 [Compound 123, hydrochloride] , and I need its recorded concentration at 2 min. 2330 ng/mL

I have this compound here, N=C(N)c1cccc(CC(NS(=O)(=O)c2ccc3ccccc3c2)C(=O)N2Cc3ccccc3CC2C(=O)O)c1 (racemic) , and I need its recorded concentration at 2 min. 4440 ng/mL

I have this compound here, N=C(NO)c1cccc(CC(NS(=O)(=O)c2ccc3ccccc3c2)C(=O)N2Cc3ccccc3CC2C(=O)O)c1 (racemic) [Compound 190, hydroiodide] , and I need its recorded concentration at 2 min. 3260 ng/mL

I have this compound here, N=C(N)c1cccc(CC(NS(=O)(=O)c2ccc3ccccc3c2)C(=O)N2CCCCC2C(=O)O)c1 (racemic) , and I need its recorded concentration at 2 min. 1900 ng/mL

====

PROCEDURE TEXT: Plasma concentration in rats after subcutaneous administration (HPLC)
SETTINGS: rat, plasma, sc, 5 mg/kg
Where a name gives a salt, the structure may show the parent alone.
RESULT TYPE: concentration at 0.75 h (ng/mL)
Write it as a number; the unit ng/mL goes unstated.

I have this compound here, N=C(N)c1cccc(C[C@H](NS(=O)(=O)c2ccc3ccccc3c2)C(=O)N2CCC[C@@H]2C(=O)O)c1 [Compound 123, hydrochloride] , and I need its recorded concentration at 0.75 h. 1380

I have this compound here, NCc1cccc(CC(NS(=O)(=O)c2ccc3ccccc3c2)C(=O)N2CCC(C(=O)O)CC2)c1 (racemic) , and I need its recorded concentration at 0.75 h. 444

I have this compound here, N=C(N)c1cccc(CC(NS(=O)(=O)c2ccc3ccccc3c2)C(=O)N2CCC(C(=O)O)CC2)c1 (racemic) , and I need its recorded concentration at 0.75 h. 860

I have this compound here, N=C(NO)c1cccc(CC(NS(=O)(=O)c2ccc3ccccc3c2)C(=O)N2Cc3ccccc3CC2C(=O)O)c1 (racemic) [Compound 190, hydroiodide] , and I need its recorded concentration at 0.75 h. 374

I have this compound here, N=C(N)c1cccc(CC(NS(=O)(=O)c2ccc3ccccc3c2)C(=O)N2CCCCC2C(=O)O)c1 (racemic) , and I need its recorded concentration at 0.75 h. 626

I have this compound here, N=C(N)c1cccc(CC(NS(=O)(=O)c2ccc3ccccc3c2)C(=O)N2Cc3ccccc3CC2C(=O)O)c1 (racemic) , and I need its recorded concentration at 0.75 h. 72

====

PROCEDURE TEXT: in vivo
SETTINGS: mouse, po
Where a name gives a salt, the structure may show the parent alone.
Assign LD50 at 168 h to each entry below.

I have this compound here, N=C(N)c1cccc(C[C@H](NS(=O)(=O)c2ccc3ccccc3c2)C(=O)N2CCC[C@@H]2C(=O)O)c1 [Compound 123, hydrochloride] , and I need its recorded LD50 at 168 h. > 3000 mg/kg

I have this compound here, COC(=O)[C@H]1CCCN1C(=O)[C@H](Cc1cccc(C(=N)N)c1)NS(=O)(=O)c1ccc2ccccc2c1 [Compound 124, hydrochloride] , and I need its recorded LD50 at 168 h. > 3000 mg/kg

I have this compound here, N=C(N)c1cccc(CC(NS(=O)(=O)c2ccc3ccccc3c2)C(=O)N2CCC(C(=O)O)CC2)c1 (racemic) [Compound 85] , and I need its recorded LD50 at 168 h. > 3000 mg/kg

I have this compound here, N=C(N)c1cccc(CC(NS(=O)(=O)c2ccc3ccccc3c2)C(=O)N2CCCCC2C(=O)O)c1 (racemic) [Compound 83] , and I need its recorded LD50 at 168 h. > 3000 mg/kg

I have this compound here, N=C(N)Nc1cccc(CC(NS(=O)(=O)c2ccc3ccccc3c2)C(=O)N2CCCCC2C(=O)O)c1 (racemic) [Compound 208, hydrochloride] , and I need its recorded LD50 at 168 h. > 1000 mg/kg

I have this compound here, COC(=O)[C@H](Cc1cccc(C(=N)N)c1)NC(=O)CNS(=O)(=O)c1ccc(C)cc1 [TAPAM, reference compound] , and I need its recorded LD50 at 168 h. > 1000 mg/kg

I have this compound here, NCc1cccc(CC(NS(=O)(=O)c2ccc3ccccc3c2)C(=O)N2CCC(C(=O)O)CC2)c1 (racemic) [Compound 186] , and I need its recorded LD50 at 168 h. > 3000 mg/kg

I have this compound here, N=C(NO)c1cccc(CC(NS(=O)(=O)c2ccc3ccccc3c2)C(=O)N2Cc3ccccc3CC2C(=O)O)c1 (racemic) [Compound 190, hydroiodide] , and I need its recorded LD50 at 168 h. > 3000 mg/kg

I have this compound here, N=C(N)c1cccc(CC(NS(=O)(=O)c2ccc3ccccc3c2)C(=O)N2Cc3ccccc3CC2C(=O)O)c1 (racemic) [Compound 134] , and I need its recorded LD50 at 168 h. > 3000 mg/kg

====

Assign log10 Ki to each entry below.
TARGET ENTITY: UniProt P00743
Sequence (P00743 234-492 limits assumed): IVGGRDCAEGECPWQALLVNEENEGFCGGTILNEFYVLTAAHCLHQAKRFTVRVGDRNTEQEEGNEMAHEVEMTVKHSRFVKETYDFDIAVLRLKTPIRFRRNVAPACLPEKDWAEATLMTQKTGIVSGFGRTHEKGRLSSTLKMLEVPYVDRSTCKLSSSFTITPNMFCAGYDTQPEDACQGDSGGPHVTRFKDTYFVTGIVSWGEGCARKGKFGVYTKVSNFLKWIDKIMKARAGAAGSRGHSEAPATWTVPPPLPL
Sequence (P00743 41-180 partner limits assumed): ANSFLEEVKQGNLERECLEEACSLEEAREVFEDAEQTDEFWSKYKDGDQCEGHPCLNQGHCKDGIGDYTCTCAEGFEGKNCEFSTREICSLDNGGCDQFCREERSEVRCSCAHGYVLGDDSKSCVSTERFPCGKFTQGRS
PROCEDURE TEXT: Inhibition of factor Xa (dissociation constant Ki)
Assay type: biochemical
SETTINGS: Tables 19-25; read-out: Ki, Factor Xa
Where a name gives a salt, the structure may show the parent alone.
Note: values are log10 of Ki expressed in µM.

I have this compound here, N=C(NO)c1cccc(CC(NS(=O)(=O)c2ccc3ccccc3c2)C(=O)N2CCC(C(=O)O)CC2)c1 (racemic) [Compound 189, hydroiodide] , and I need its recorded log10 Ki. 2.83

I have this compound here, COC(=O)C1CCCCN1C(=O)C(Cc1cccc(C(=N)N)c1)NS(=O)(=O)c1ccc2ccccc2c1 (racemic) , and I need its recorded log10 Ki. 1.66

I have this compound here, N=C(N)c1cccc(CC(NC(=O)CNS(=O)(=O)c2ccc3ccccc3c2)C(=O)N2CCCCC2C(=O)O)c1 (racemic) , and I need its recorded log10 Ki. 1.68

I have this compound here, N=C(N)c1cccc(CC(NS(=O)(=O)c2ccc3ccccc3c2)C(=O)N2CCCCC2C(=O)NCC(=O)O)c1 (racemic) [Compound 116, hydrochloride] , and I need its recorded log10 Ki. 2.04

I have this compound here, NCc1cccc(CC(NS(=O)(=O)c2ccc3ccccc3c2)C(=O)N2CCC(C(=O)O)CC2)c1 (racemic) , and I need its recorded log10 Ki. 2.36

I have this compound here, N=C(N)c1cccc(C[C@H](NS(=O)(=O)c2ccc3ccccc3c2)C(=O)N2CCC[C@@H]2C(=O)O)c1 [Compound 123, hydrochloride] , and I need its recorded log10 Ki. 2.34

====

TARGET ENTITY: factor XIIa (Homo sapiens)
Construct: glandular kallikrein, factor XIIa and plasma kallikrein
Sequence (P00748 373-615 limits assumed): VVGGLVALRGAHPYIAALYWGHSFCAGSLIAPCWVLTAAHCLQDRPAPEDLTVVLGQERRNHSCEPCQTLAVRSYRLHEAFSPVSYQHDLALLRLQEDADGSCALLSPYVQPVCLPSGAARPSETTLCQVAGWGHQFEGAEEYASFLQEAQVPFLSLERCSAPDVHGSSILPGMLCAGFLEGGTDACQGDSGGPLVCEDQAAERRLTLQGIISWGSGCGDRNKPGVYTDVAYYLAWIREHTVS
PROCEDURE TEXT: Inhibition of factor XIIa (Ki)
SETTINGS: Table 26
Assign Ki to each entry below.
Write it as a number; the unit µM goes unstated.

I have this compound here, COC(=O)C1CCCCN1C(=O)C(Cc1cccc(C(=N)N)c1)NS(=O)(=O)c1ccc2ccccc2c1 (racemic) , and I need its recorded Ki. 500

I have this compound here, N=C(NO)c1cccc(CC(NS(=O)(=O)c2ccc3ccccc3c2)C(=O)N2Cc3ccccc3CC2C(=O)O)c1 (racemic) [Compound 190, hydroiodide] , and I need its recorded Ki. 460

I have this compound here, COC(=O)C(Cc1cccc(C(=N)N)c1)NS(=O)(=O)c1ccc2ccccc2c1 (racemic) , and I need its recorded Ki. 190

I have this compound here, COC(=O)[C@H](Cc1cccc(C(=N)N)c1)NC(=O)CNS(=O)(=O)c1ccc(C)cc1 [TAPAM, reference compound] , and I need its recorded Ki. 180

I have this compound here, CC1CCN(C(=O)C(Cc2cccc(C(=N)N)c2)NC(=O)CNS(=O)(=O)c2ccc3ccccc3c2)CC1 (racemic) , and I need its recorded Ki. 350

====

PROCEDURE TEXT: Plasma concentration in rats after subcutaneous administration (HPLC)
SETTINGS: rat, plasma, sc, 5 mg/kg
Counter-ions that a name gives are not always drawn.
RESULT TYPE: concentration at 4 h (ng/mL)
Write it as a number; the unit ng/mL goes unstated.

I have this compound here, N=C(N)c1cccc(C[C@H](NS(=O)(=O)c2ccc3ccccc3c2)C(=O)N2CCC[C@@H]2C(=O)O)c1 [Compound 123, hydrochloride] , and I need its recorded concentration at 4 h. 927

I have this compound here, NCc1cccc(CC(NS(=O)(=O)c2ccc3ccccc3c2)C(=O)N2CCC(C(=O)O)CC2)c1 (racemic) [Compound 186] , and I need its recorded concentration at 4 h. 669

I have this compound here, N=C(N)c1cccc(CC(NS(=O)(=O)c2ccc3ccccc3c2)C(=O)N2Cc3ccccc3CC2C(=O)O)c1 (racemic) [Compound 134] , and I need its recorded concentration at 4 h. 268
